- experimentNotes: RP-18 TLC hydrophobicity (1-Rf) of Ac-X-NH2 analogs
- Type: physicochemical
- conditionInfo: RP18 TLC, 40% acetonitrile / 60% PBS (10 mM phosphate buffer), pH 4 vs pH 8
quantity: pH dependence of TLC retention (1-Rf)

CC(=O)N[C@@H](Cc1ccccc1)C(N)=O [Ac-F-NH2]
independent of pH
CC(=O)N[C@@H](Cc1ccc(O)cc1)C(N)=O [Ac-Y-NH2]
independent of pH
CC(=O)N[C@@H](Cc1c[nH]c2ccccc12)C(N)=O [Ac-W-NH2]
independent of pH
